Hello, the source for this data is the supplement of paper PMC11061612, in case you need it.

tested on: CL-11 (Colorectal Carcinoma); test: combination Emax (second highest fraction inhibited in the dose matrix, 72 h); higher = more inhibition; extreme values may be limits of the assay
Consider the following compounds; for each one, report its combination Emax.
Number only, no unit.

Any idea what combination Emax was measured for COc1nnc2ccc(N3CCC(c4ccc(OCCN5CCN(C)C(=O)[C@H]5C)cc4)CC3)nn12 [AZD5153] + CN(CC[C@H](CSC1=CC=CC=C1)NC2=C(C=C(C=C2)S(=O)(=O)NC(=O)C3=CC=C(C=C3)N4CCC(CC4)[C@H](C5=CC=CC=C5C6=CC=C(C=C6)Cl)O)S(=O)(=O)C(F)(F)F)CCO [AZD4320] (first compound max 1 µM, 7x7, partner max 1 µM) ? 0.782

For the compound COc1nnc2ccc(N3CCC(c4ccc(OCCN5CCN(C)C(=O)[C@H]5C)cc4)CC3)nn12 [AZD5153] + C=CCn1c(=O)c2cnc(Nc3ccc(N4CCN(C)CC4)cc3)nc2n1-c1cccc(C(C)(C)O)n1 [AZD1775] (first compound max 1 µM, partner max 1 µM) , what combination Emax is on record? 0.809

Recorded combination Emax of CN(CCO)CC[C@H](CSc1ccccc1)Nc1ccc(S(=O)(=O)NC(=O)c2ccc(N3CCC([C@@H](O)c4ccccc4-c4ccc(Cl)cc4)CC3)cc2)cc1S(=O)(=O)C(F)(F)F [AZD4320] + CCN(CCO)CCCOc1ccc2c(Nc3cc(CC(=O)Nc4cccc(F)c4)[nH]n3)ncnc2c1 [AZD2811] (first compound max 1 µM, 7x7, partner max 1 µM) , please. 0.0894

GET /values?readout=combination Emax&item= CN(CCO)CC[C@H](CSc1ccccc1)Nc1ccc(S(=O)(=O)NC(=O)c2ccc(N3CCC([C@@H](O)c4ccccc4-c4ccc(Cl)cc4)CC3)cc2)cc1S(=O)(=O)C(F)(F)F [AZD4320] + Cc1cc2ncnn2cc1Nc1ncc2c(n1)n(C1CCOCC1)c(=O)n2C [AZD7648] (first compound max 1 µM, 7x7, partner max 10 µM) 0.126

// query combination Emax value for entry Cc1cc2ncnn2cc1Nc1ncc2c(n1)n(C1CCOCC1)c(=O)n2C [AZD7648] + C=CCn1c(=O)c2cnc(Nc3ccc(N4CCN(C)CC4)cc3)nc2n1-c1cccc(C(C)(C)O)n1 [AZD1775] (first compound max 10 µM, partner max 1 µM) 0.638

Look up combination Emax for this compound: COc1nnc2ccc(N3CCC(c4ccc(OCCN5CCN(C)C(=O)[C@H]5C)cc4)CC3)nn12 [AZD5153] + Cc1c2c(nn1C)CSCc1cc(n(C)n1)CSc1cc(c3ccccc3c1)OCCCc1c(C(=O)O)n(C)c3c-2c(Cl)ccc13 [AZD5991] (first compound max 1 µM, 7x7, partner max 1 µM) 0.768

Can you share its combination Emax? I mean this compound: CN(CCO)CC[C@H](CSc1ccccc1)Nc1ccc(S(=O)(=O)NC(=O)c2ccc(N3CCC([C@@H](O)c4ccccc4-c4ccc(Cl)cc4)CC3)cc2)cc1S(=O)(=O)C(F)(F)F [AZD4320] + C[C@@H](Nc1cc(F)cc(F)c1)c1cc(C(=O)N(C)C)cc2c(=O)cc(N3CCOCC3)oc12 [AZD8186] (first compound max 1 µM, 7x7, partner max 3 µM) 0.378

Which combination Emax is listed for CN(CCO)CC[C@H](CSc1ccccc1)Nc1ccc(S(=O)(=O)NC(=O)c2ccc(N3CCC([C@@H](O)c4ccccc4-c4ccc(Cl)cc4)CC3)cc2)cc1S(=O)(=O)C(F)(F)F [AZD4320] + C=CCn1c(=O)c2cnc(Nc3ccc(N4CCN(C)CC4)cc3)nc2n1-c1cccc(C(C)(C)O)n1 [AZD1775] (first compound max 1 µM, partner max 1 µM) ? 0.507

* * *

tested on: T84 (Colorectal Carcinoma); experiment: Bliss excess, mean over the matrix (fraction); higher = more synergy
Could you please report measured Bliss excess for the items listed next?
Form field (numeric): enter value without unit.

Need Bliss excess of COc1nnc2ccc(N3CCC(c4ccc(OCCN5CCN(C)C(=O)[C@H]5C)cc4)CC3)nn12 [AZD5153] + Cc1c2c(nn1C)CSCc1cc(n(C)n1)CSc1cc(c3ccccc3c1)OCCCc1c(C(=O)O)n(C)c3c-2c(Cl)ccc13 [AZD5991] (first compound max 1 µM, 7x7, partner max 1 µM) , thanks. -0.0524

Query (compound): Cn1cnc2c(F)c(Nc3ccc(Br)cc3Cl)c(C(=O)NOCCO)cc21 [Selumetinib] + CCN(CCO)CCCOc1ccc2c(Nc3cc(CC(=O)Nc4cccc(F)c4)[nH]n3)ncnc2c1 [AZD2811] (first compound max 10 µM, 7x7, partner max 1 µM) ; field requested: Bliss excess -0.0479

Suppose we examine the compound CCN(CCO)CCCOc1ccc2c(Nc3cc(CC(=O)Nc4cccc(F)c4)[nH]n3)ncnc2c1 [AZD2811] + O=C(c1cc(Cc2n[nH]c(=O)c3ccccc23)ccc1F)N1CCN(C(=O)C2CC2)CC1 [Olaparib] (first compound max 1 µM, 7x7, partner max 10 µM) ; what Bliss excess value has been reported? -0.0067

Any idea what its Bliss excess is? The compound is Cc1nc(Nc2ncc(C(=O)Nc3c(C)cccc3Cl)s2)cc(N2CCN(CCO)CC2)n1 [Dasatinib] + CC(=O)Nc1cccc(-n2c(=O)n(C3CC3)c(=O)c3c(Nc4ccc(I)cc4F)n(C)c(=O)c(C)c32)c1 [Trametinib] (first compound max 2 µM, 7x7, partner max 1 µM) -0.0174

* * *

Task for the reader: assign each of the following compounds its reported combination Emax.
test system: NCI-H1963 (Small Cell Lung Carcinoma); assay: combination Emax (second highest fraction inhibited in the dose matrix, 72 h); higher = more inhibition; extreme values may be limits of the assay
The answer should be a number; do not append a unit.

Quick check: combination Emax of CN(CCO)CC[C@H](CSc1ccccc1)Nc1ccc(S(=O)(=O)NC(=O)c2ccc(N3CCC([C@@H](O)c4ccccc4-c4ccc(Cl)cc4)CC3)cc2)cc1S(=O)(=O)C(F)(F)F [AZD4320] + CCN(CCO)CCCOc1ccc2c(Nc3cc(CC(=O)Nc4cccc(F)c4)[nH]n3)ncnc2c1 [AZD2811] (first compound max 1 µM, 7x7, partner max 1 µM) ? 1

State the recorded combination Emax for this entry: Cn1cnc2c(F)c(Nc3ccc(Br)cc3Cl)c(C(=O)NOCCO)cc21 [Selumetinib] + CCN(CCO)CCCOc1ccc2c(Nc3cc(CC(=O)Nc4cccc(F)c4)[nH]n3)ncnc2c1 [AZD2811] (first compound max 10 µM, 7x7, partner max 1 µM) 0.902

Consider the compound CCN(CCO)CCCOc1ccc2c(Nc3cc(CC(=O)Nc4cccc(F)c4)[nH]n3)ncnc2c1 [AZD2811] + C=CCn1c(=O)c2cnc(Nc3ccc(N4CCN(C)CC4)cc3)nc2n1-c1cccc(C(C)(C)O)n1 [AZD1775] (first compound max 1 µM, partner max 1 µM) and give its measured combination Emax. 0.876

* * *

tested on: HPAF-II (Pancreatic Carcinoma); assay: Bliss excess, mean over the matrix (fraction); higher = more synergy
Kindly supply the reported Bliss excess values for the records listed here.
Please give only the number in your answer, with no unit.

Param readout = Bliss excess; param system = HPAF-II (Pancreatic Carcinoma); param query = Cc1cc2ncnn2cc1Nc1ncc2c(n1)n(C1CCOCC1)c(=O)n2C [AZD7648] + COc1cc([C@@H]2c3cc4c(cc3[C@@H](O[C@@H]3O[C@@H]5CO[C@@H](C)O[C@H]5[C@H](O)[C@H]3O)[C@H]3COC(=O)[C@H]23)OCO4)cc(OC)c1O [Etoposide] (first compound max 10 µM, 7x7, partner max 10 µM) ; response: value 0.0098

Recall the recorded Bliss excess for N#Cc1cnc(Nc2cc(NC[C@H]3CNCCO3)c(C(F)(F)F)cn2)cn1 [SRA737] + CCc1c2c(nc3ccc(O)cc13)-c1cc3c(c(=O)n1C2)COC(=O)[C@]3(O)CC [SN-38] (first compound max 10 µM, 7x7, partner max 0.3 µM) with HPAF-II (Pancreatic Carcinoma) and state it. -0.0004

Any idea what Bliss excess came out for NC1(C(=O)N[C@@H](CCO)c2ccc(Cl)cc2)CCN(c2ncnc3[nH]ccc23)CC1 [Capivasertib] + Cn1cnc2c(F)c(Nc3ccc(Br)cc3Cl)c(C(=O)NOCCO)cc21 [Selumetinib] (first compound max 10 µM, 7x7, partner max 10 µM) on HPAF-II (Pancreatic Carcinoma)? 0.0623

Can you look up Bliss excess on HPAF-II (Pancreatic Carcinoma) for C=CCn1c(=O)c2cnc(Nc3ccc(N4CCN(C)CC4)cc3)nc2n1-c1cccc(C(C)(C)O)n1 [AZD1775] + Nc1ccn([C@@H]2O[C@H](CO)[C@@H](O)C2(F)F)c(=O)n1 [Gemcitabine] (first compound max 1 µM, partner max 0.3 µM) ? 0.0046

Bliss excess of COc1cc2ncnc(Nc3ccc(F)c(Cl)c3)c2cc1OCCCN1CCOCC1 [Gefitinib] + CC(C)n1c(=O)n(C)c2cnc3cc(F)c(-c4ccc(OCCCN5CCCCC5)nc4)cc3c21 [AZD1390] (first compound max 10 µM, 7x7, partner max 0.3 µM) on HPAF-II (Pancreatic Carcinoma)? -0.066

Quick check: Bliss excess on HPAF-II (Pancreatic Carcinoma), item COc1nnc2ccc(N3CCC(c4ccc(OCCN5CCN(C)C(=O)[C@H]5C)cc4)CC3)nn12 [AZD5153] + Cn1cnc2c(F)c(Nc3ccc(Br)cc3Cl)c(C(=O)NOCCO)cc21 [Selumetinib] (first compound max 1 µM, 7x7, partner max 10 µM) ? 0.0634

Bliss excess of CN(CCO)CC[C@H](CSc1ccccc1)Nc1ccc(S(=O)(=O)NC(=O)c2ccc(N3CCC([C@@H](O)c4ccccc4-c4ccc(Cl)cc4)CC3)cc2)cc1S(=O)(=O)C(F)(F)F [AZD4320] + CC(=O)O[C@H]1C(=O)[C@@]2(C)[C@H]([C@H](OC(=O)c3ccccc3)[C@]3(O)C[C@H](OC(=O)[C@H](O)[C@@H](NC(=O)c4ccccc4)c4ccccc4)C(C)=C1C3(C)C)[C@]1(OC(C)=O)CO[C@@H]1C[C@@H]2O [Paclitaxel] (first compound max 1 µM, 7x7, partner max 3 µM) on HPAF-II (Pancreatic Carcinoma)? 0.0952

Value wanted: Bliss excess (HPAF-II (Pancreatic Carcinoma)) of entry N#Cc1cnc(Nc2cc(NC[C@H]3CNCCO3)c(C(F)(F)F)cn2)cn1 [SRA737] + O=c1[nH]cc(F)c(=O)[nH]1 [5-Fluorouracil] (first compound max 10 µM, 7x7, partner max 20 µM) 0.036

Give the reported Bliss excess for Cn1cnc2c(F)c(Nc3ccc(Br)cc3Cl)c(C(=O)NOCCO)cc21 [Selumetinib] + CC(C)n1c(=O)n(C)c2cnc3cc(F)c(-c4ccc(OCCCN5CCCCC5)nc4)cc3c21 [AZD1390] (first compound max 10 µM, 7x7, partner max 0.3 µM) (system: HPAF-II (Pancreatic Carcinoma)). 0.0088

Give recorded Bliss excess with HPAF-II (Pancreatic Carcinoma) for the following compound: C=CCn1c(=O)c2cnc(Nc3ccc(N4CCN(C)CC4)cc3)nc2n1-c1cccc(C(C)(C)O)n1 [AZD1775] + CCc1c2c(nc3ccc(O)cc13)-c1cc3c(c(=O)n1C2)COC(=O)[C@]3(O)CC [SN-38] (first compound max 1 µM, partner max 0.3 µM) -0.0218

Find Bliss excess (HPAF-II (Pancreatic Carcinoma)) for the entry CN(C)CCCOc1ccc(-c2ccc3ncc4c(c3c2)n(C2CCOCC2)c(=O)n4C)cn1 [AZD0156] + O=C(c1cc(Cc2n[nH]c(=O)c3ccccc23)ccc1F)N1CCN(C(=O)C2CC2)CC1 [Olaparib] (first compound max 3 µM, partner max 3 µM) -0.0048

Record lookup: for HPAF-II (Pancreatic Carcinoma), what Bliss excess belongs to CN(CCO)CC[C@H](CSc1ccccc1)Nc1ccc(S(=O)(=O)NC(=O)c2ccc(N3CCC([C@@H](O)c4ccccc4-c4ccc(Cl)cc4)CC3)cc2)cc1S(=O)(=O)C(F)(F)F [AZD4320] + CS(=O)(=O)CCNCc1ccc(-c2ccc3ncnc(Nc4ccc(OCc5cccc(F)c5)c(Cl)c4)c3c2)o1 [Lapatinib] (first compound max 1 µM, 7x7, partner max 10 µM) ? 0.031

GET /values?readout=Bliss excess&system=HPAF-II (Pancreatic Carcinoma)&item= Cc1c2c(nn1C)CSCc1cc(n(C)n1)CSc1cc(c3ccccc3c1)OCCCc1c(C(=O)O)n(C)c3c-2c(Cl)ccc13 [AZD5991] + CS(=O)(=O)CCNCc1ccc(-c2ccc3ncnc(Nc4ccc(OCc5cccc(F)c5)c(Cl)c4)c3c2)o1 [Lapatinib] (first compound max 1 µM, 7x7, partner max 10 µM) -0.0209
